- Run description: BHET released, HPLC; higher = more BHET released; extreme values may be limits of the assay
- Measurement parameters: PET substrate: cryPow; 70 °C; pH 8.5; 24 h
Each item that follows carries a reported BHET released.
Supply the numeric figure in mM, leaving out any unit text.

- Sequence data: "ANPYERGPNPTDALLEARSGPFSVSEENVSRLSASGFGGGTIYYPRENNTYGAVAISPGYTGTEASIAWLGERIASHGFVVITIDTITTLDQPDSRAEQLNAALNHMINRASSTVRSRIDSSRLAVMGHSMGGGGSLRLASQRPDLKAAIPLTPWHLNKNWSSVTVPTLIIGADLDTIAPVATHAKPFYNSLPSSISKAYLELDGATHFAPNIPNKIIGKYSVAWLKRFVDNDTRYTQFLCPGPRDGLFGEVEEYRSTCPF [TfCut2]"
  Readout units: "mM"
  BHET released: 0

# next sequence below
Record summary for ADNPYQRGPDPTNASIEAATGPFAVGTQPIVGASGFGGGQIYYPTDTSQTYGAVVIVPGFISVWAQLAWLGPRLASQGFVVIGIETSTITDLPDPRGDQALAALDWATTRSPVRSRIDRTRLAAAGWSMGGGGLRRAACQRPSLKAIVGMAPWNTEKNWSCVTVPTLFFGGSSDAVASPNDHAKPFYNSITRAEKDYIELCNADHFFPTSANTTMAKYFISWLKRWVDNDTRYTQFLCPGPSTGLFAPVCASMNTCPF [CaPETaseM9] : reported BHET released = 0
